# MEASURED TARGET: T1, O772P 3-repeat recombinant protein (human)
# T1 construct: Repeats are residues 14-452 of the entry
# T1 chain: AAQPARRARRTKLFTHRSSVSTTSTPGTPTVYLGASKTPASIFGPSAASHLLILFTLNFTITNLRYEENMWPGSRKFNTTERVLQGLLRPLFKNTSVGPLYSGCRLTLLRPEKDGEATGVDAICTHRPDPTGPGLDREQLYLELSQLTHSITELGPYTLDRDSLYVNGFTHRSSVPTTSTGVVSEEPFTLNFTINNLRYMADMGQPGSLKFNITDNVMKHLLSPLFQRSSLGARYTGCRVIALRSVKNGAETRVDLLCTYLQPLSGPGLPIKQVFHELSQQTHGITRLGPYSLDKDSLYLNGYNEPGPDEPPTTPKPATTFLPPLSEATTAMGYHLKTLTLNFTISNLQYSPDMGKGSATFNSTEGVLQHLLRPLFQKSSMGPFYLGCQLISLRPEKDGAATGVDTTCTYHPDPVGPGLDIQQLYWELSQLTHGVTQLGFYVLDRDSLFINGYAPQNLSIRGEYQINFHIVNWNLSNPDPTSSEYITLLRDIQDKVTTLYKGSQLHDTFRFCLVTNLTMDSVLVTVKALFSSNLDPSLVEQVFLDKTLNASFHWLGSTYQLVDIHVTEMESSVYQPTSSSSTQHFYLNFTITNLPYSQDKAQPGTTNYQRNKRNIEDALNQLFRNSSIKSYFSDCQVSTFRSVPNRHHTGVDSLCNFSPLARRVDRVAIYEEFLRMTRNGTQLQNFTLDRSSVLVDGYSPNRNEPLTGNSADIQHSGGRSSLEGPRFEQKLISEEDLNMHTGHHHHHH
# PROTOCOL DETAILS: ELISA competition, plate-bound O772P 3-repeat; competitor soluble O772P 3-repeat
READOUT LABEL: absorbance w/O772P 3-repeat competitor (10 x w/w excess) (OD)
One number for each entry, in OD.

Incoming: Return reported absorbance w/O772P 3-repeat competitor (10 x w/w excess); argument: OC125 (antibody) chain 1: QVQLQESGPELVKPGASVKISCKASGYTFTDYNMHWVKQSHGKSLEWIGYIYPYNGDTGYNQKFRNKASLTVDTSSSTAYMELRSLTSEDSAVYYWARSGGFWYFDVWGQGGTTVTVSS chain 2: DIQMTQSPAILSASPGEKVTMTCRATPSVSYMHWYQQKPGSSPKPLIYTTSNLASGVPARFSGGGSGTSYSLTVSRVEVEDAATYYCQQWSRSPPTFGAGTKLEIK
Outgoing: 0.047
